Values from PubChem BioAssay (NCATS)

# experiment-summary: Quantitative High-Throughput drug screen in 47 multiple myeloma cell lines against the NCATS MIPE library collection: KMS11_JCRBsus cell viability assay (AID 1919873); note: nearly all actives have a fitted effect of over 50% in size
# recorded-conditions: KMS11 myeloma viability, CellTiter-Glo ATP luminescence, 48 h; series mostly up to 45.8 µM
Records with an inconclusive call do not appear. Active and inactive are the calls of the source. Calls come from the whole dose curve; as a rule, active = well fitted cell-killing curve with a large enough effect; inconclusive = small, poorly fitted or top-dose-only effect, or effect the other way; inactive = no such curve, though single readings can be large or run the other way.
Result category, one only: 1.0 (active), 0.0 (inactive)

See these solved cases before continuing.
Returns: the outcome recorded for CC(C)(C)C(=O)OCOP(=O)(COCCn1cnc2c(N)ncnc21)OCOC(=O)C(C)(C)C in this assay.
1.0

Call for entry Nc1ccc(S(=O)(=O)Nc2ccccn2)cc1 :
0.0

Which outcome did this test record for the compound O=S(=O)(c1cccc2cnccc12)N1CCCNCC1 ?
0.0

Would you mind telling me which call this test gave CC[C@H](C)C(=O)O[C@H]1C[C@@H](C)C=C2C=C[C@H](C)[C@H](CC[C@@H]3C[C@@H](O)CC(=O)O3)[C@H]21 ?
1.0

Outcome? COc1cc([C@@H]2c3cc4c(cc3[C@H](O)[C@H]3COC(=O)[C@H]23)OCO4)cc(OC)c1OC
0.0

Called result for CNS(=O)(=O)Cc1ccc2[nH]cc(CCN(C)C)c2c1
0.0

Lab log entry: Nc1[nH]c(=O)ncc1F — outcome as called in the assay?
0.0

Look up the recorded call for COc1cc2ncnc(Nc3cccc(Cl)c3)c2cc1OC in this test.
1.0

Kindly provide the recorded test outcome for the following compound: COc1ccc2cc3[n+](cc2c1OC)CCc1cc2c(cc1-3)OCO2
1.0

What classification did S=P(N1CC1)(N1CC1)N1CC1 end up with in this test?
0.0

Others:
Could you check what this test reported for CCCN[C@H]1CCc2nc(N)sc2C1 ?
0.0

====

# experiment-summary: Confirmation and Secondary Assay for Modulators of Hemoglobin Beta Chain Splicing at IVS2 654 locus (AID 910);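 note: HeLa cells stably carrying EGFP split by mutant beta-globin IVS2-654 intron; per-well total GFP intensity by laser scanning cytometry after 2-day treatment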
# recorded-conditions: HeLa EGFP-654 splicing reporter, GFP fluorescence, 48 h; series mostly up to 46.1 µM
Activity calls are given as the source filed them. Calls follow the shape of the dose curve; as a rule, active = well fitted activation curve with a large enough effect; inconclusive = small, poorly fitted or top-dose-only effect; inactive = flat fitted curve, though single readings scatter.
Respond with a class label; see active, inactive

Use these answered entries as a reference point.
Dear colleague, could you share the recorded outcome for CN1CCCC(n2nc(Cc3ccc(Cl)cc3)c3ccccc3c2=O)CC1 (configuration not stated) when you have a moment?
inactive

Record lookup: outcome of this test for OC(Cn1cncn1)(Cn1cncn1)c1ccc(F)cc1F ?
inactive

Short answer needed: outcome of this test for COc1ccc2cc3[n+](cc2c1OC)CCc1cc2c(cc1-3)OCO2 ?
inactive

More entries:
Please indicate how the test categorized Nc1nc(=S)c2[nH]cnc2[nH]1 .
active

What is the recorded call for this compound in the test? CCCc1cc(C(N)=S)ccn1
inactive

Please let me know the test result on file for Cc1cccc(Nc2ccncc2S(=O)(=O)NC(=O)NC(C)C)c1 .
inactive

Recorded call for O=C(O)c1cccnc1 ?
inactive

====

# experiment-summary: Quantitative High-Throughput drug screen in 47 multiple myeloma cell lines against the NCATS MIPE library collection: OCIMY7_PLB cell viability assay (AID 1918987); note: potency is the fitted concentration of half-maximal effect; nearly all actives have a fitted effect of over 65% in size
# recorded-conditions: OCI-MY7 myeloma viability, CellTiter-Glo ATP, 48 h; series mostly up to 45.8 µM
Inconclusive results are not listed. Activity calls are given as the source filed them. Calls come from the whole dose curve; as a rule, active = well fitted cell-killing curve with a large enough effect; inconclusive = small, poorly fitted or top-dose-only effect, or effect the other way; inactive = no such curve, though single readings can be large or run the other way.
recorded-endpoint: Potency

What does the data say about its Potency? Entry: CC(C)C[C@H](NC(=O)[C@H](CCc1ccccc1)NC(=O)CN1CCOCC1)C(=O)N[C@@H](Cc1ccccc1)C(=O)N[C@@H](CC(C)C)C(=O)[C@@]1(C)CO1
0.0118 µM (active)

Now, please, on to the next molecule.
State the recorded Potency for this entry: S=P(N1CC1)(N1CC1)N1CC1
13.2 µM (active)

====

# experiment-summary: Confirmatory screen NINDS Rhodamine qHTS for Zika virus inhibitors (AID 1347161); note: nearly all actives have a fitted effect of over 60% in size
# recorded-conditions: purified enzyme assay, Rhodamine110 substrate fluorescence, 15 min; series mostly up to 114 µM
Results filed as inconclusive are left out. The source made the active and inactive calls. Calls follow the shape of the dose curve; as a rule, active = well fitted inhibition curve with a large enough effect; inconclusive = small, poorly fitted or top-dose-only effect; inactive = no such curve, though single readings can be large or run the other way.
Parameter call: string, one of 1 (yes) (active), 0 (no) (inactive)

Check the results log: what was the call for COc1ccc(-c2ccc3cc(C(=O)O)ccc3c2)cc1C12CC3CC(CC(C3)C1)C2 ?
0 (no)

Can you look up the reported call for O=C(O)c1ccc(-n2nc(-c3ccccc3O)nc2-c2ccccc2O)cc1 for me?
1 (yes)

For Nc1nc(N)c2nc(CNc3ccc(C(=O)NC(CCC(=O)O)C(=O)O)cc3)cnc2n1 (stereo unspecified) , which call appears in the assay record?
1 (yes)

GET /call?item= COc1c(N2CCNC(C)C2)c(F)cc2c(=O)c(C(=O)O)cn(C3CC3)c12 (stereo unspecified) returns the recorded outcome of this test.
0 (no)

Hi, sorry to bother you, what did the test record for COc1cc(NCc2ccc3nc(N)nc(N)c3c2C)cc(OC)c1OC ?
0 (no)

--- query ---
# outcome recorded in this test, key = CC(C)(Sc1cc(C(C)(C)C)c(O)c(C(C)(C)C)c1)Sc1cc(C(C)(C)C)c(O)c(C(C)(C)C)c1
0 (no)

====

Readings of activity, negative = inhibition for the listed compounds
# experiment-summary: qHTS profiling for inhibitors of Plasmodium falciparum proliferation (AID 504749); note: nearly all actives have a fitted effect of over 60% in size;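 for activity, negative = inhibition: 0% = DMSO vehicle and full inhibition = artemisinin control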
# recorded-conditions: P. falciparum in erythrocytes, SYBR Green DNA, 72 h; at 12.8 µM (top of the series); parasite line A
Results filed as inconclusive are left out.
Write the answer as a number in %, unit excluded.

// query activity, negative = inhibition value for entry COc1cnc(NS(=O)(=O)c2ccc(N)cc2)nc1
3.37

I have this compound here, CCn1cc(C(=O)O)c(=O)c2cc(F)c(N3CCNCC3)nc21 , and I need its recorded activity, negative = inhibition.
-33.7

Report activity, negative = inhibition for CCOC(=O)c1ccc(OC(=O)CCCCCN=C(N)N)cc1 please.
-3.04

Next:
# get_value(readout='activity, negative = inhibition', item= Nc1ccc(S(=O)(=O)Nc2ccccn2)cc1 )
-13.7

Fill blank: measured activity, negative = inhibition of the compound Cc1cccc(Nc2ccncc2S(=O)(=O)NC(=O)NC(C)C)c1 is ____.
-0.953

I would be grateful if you could share the reported activity, negative = inhibition for CC(C)(Sc1cc(C(C)(C)C)c(O)c(C(C)(C)C)c1)Sc1cc(C(C)(C)C)c(O)c(C(C)(C)C)c1 .
6.04

Using the record for COc1cc(NS(=O)(=O)c2ccc(N)cc2)nc(OC)n1 , report its activity, negative = inhibition.
5.18

So what's the measured activity, negative = inhibition for this one? NC(N)=NC(N)=NCCc1ccccc1
-25.4

Which activity, negative = inhibition value is on record for COC(=O)Nc1nc2ccc(C(=O)c3ccccc3)cc2[nH]1 ?
5.97

Name the reported activity, negative = inhibition value associated with the compound Cc1cccc(N(C)C(=S)Oc2ccc3ccccc3c2)c1
-2.31

====

# Test system: CP335
# experiment-summary: qHTS profiling for inhibitors of Plasmodium falciparum proliferation (AID 504749); note: nearly all actives have a fitted effect of over 60% in size
# recorded-conditions: P. falciparum in erythrocytes, SYBR Green DNA, 72 h; series mostly up to 28.7 µM
Inconclusive results are not listed. Activity calls are given as the source filed them. Calls come from the whole dose curve; as a rule, active = well fitted inhibition curve with a large enough effect; inconclusive = small, poorly fitted or top-dose-only effect; inactive = flat fitted curve, though single readings scatter.
Hi! Could you answer with just one of these? t (active), f (inactive)

Write down the call the test reported for this compound. Item: CCCCOc1ccc(CC(=O)NO)cc1
t

I'd appreciate the recorded outcome for O=c1oc2c(O)c(O)cc3c(=O)oc4c(O)c(O)cc1c4c23 from this test.
t

Test call for this compound, please: NCCCC(O)(P(=O)(O)O)P(=O)(O)O
f

More entries:
What outcome does the record of this test show for O=C(O)c1cc(=O)[nH]c(=O)[nH]1 ?
f

Answer briefly: the call reported for COc1c(N2CCNC(C)C2)c(F)cc2c(=O)c(C(=O)O)cn(C3CC3)c12 (stereo unspecified) in this assay.
f

# outcome recorded in this test, key = C[C@]12C=CC(=O)C=C1CC[C@@H]1[C@@H]2C(=O)C[C@@]2(C)[C@H]1CC[C@]2(O)C(=O)CO
f

====

# System: CP194
# experiment-summary: qHTS profiling for inhibitors of Plasmodium falciparum proliferation (AID 504749); note: nearly all actives have a fitted effect of over 60% in size
# recorded-conditions: P. falciparum in erythrocytes, SYBR Green DNA, 72 h; series mostly up to 28.7 µM
# Protocol: NIH National Institute of Allergy and Infectious Diseases [NIAID] NIH Chemical Genomics Center [NCGC] […] Because mature erythrocytes lack DNA, only Plasmodium-derived DNA is detected. NCGC Assay Protocol Summary: The SYBR Green viability assay was adapted from a method described previously (Plouffe et al., 2008). […] The following morning, fluorescence intensity at 485(14) nm excitation and 535(25) nm emission wavelengths was measured on an EnVision (Perkin Elmer) plate reader. […]
Inconclusive results are not listed. Activity calls are given as the source filed them. Calls come from the whole dose curve; as a rule, active = well fitted inhibition curve with a large enough effect; inconclusive = small, poorly fitted or top-dose-only effect; inactive = flat fitted curve, though single readings scatter.
One label from this list, please: y (active), n (inactive)

Given COc1ccc2cc3[n+](cc2c1OC)CCc1cc2c(cc1-3)OCO2 , state the outcome it received in this test.
y

Kindly provide the recorded test outcome for the following compound: COc1cnc(NS(=O)(=O)c2ccc(N)cc2)nc1
n

Next:
Which outcome did this test record for the compound NC(=O)c1cccnc1 ?
n
